Tested on: DAPK2
Conditions: concentration: 1 μM, replicates: in singlicate; n = 1;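 further: KINOMEscan kinase panel screen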
quantity: %Inh (%)
Reply with just the number (in %).

Known %Inh results, listed for orientation:
| compound | quantity | recordedNumber |
| --- | --- | --- |
| Cc1ccc(C(=O)N2CC[C@@H](O)C2)cc1-n1c(C)cc(OCc2ccc(F)cc2F)c(Br)c1=O | %Inh | 0 |
| Cc1ccc(C)c(NC(=O)NC2CCN(c3ccnc(Nc4ccc(F)cc4)n3)C2)c1 (stereo not shown) | %Inh | 0 |

Inquiry: Would you mind telling me what %Inh value was observed for Cn1cc(-c2ccc3c(c2)CCN3C(=O)Cc2cccc(Cl)c2)c2c(N)ncnc21 ?
Reply text: 5

Inquiry: Here is the next compound: CC(C)c1nc(-c2cccc(NS(=O)(=O)c3c(F)cccc3F)c2F)c(-c2ccnc(Nc3ccc(N4CCOCC4)nc3)n2)s1
Reply text: 1

Inquiry: Param item: Cn1cc(-c2ccc3c(c2)CCN3C(=O)Cc2cccc(F)c2)c2c(N)ncnc21
Reply text: 0

====

Tested on: ERK1
Construct: gene MAPK3
Conditions: concentration: 1 μM, replicates: in singlicate; n = 1
Listed compounds paired with reported %Inh
Include the unit right after the number.

| compound | quantity | result |
| --- | --- | --- |
| CCc1ccc(-c2ccc3c(c2)-c2c(cnn2C)S(=O)(=O)N3C)cc1 | %Inh | 4% |

Inquiry: Under ERK1: %Inh value of COc1cc(Nc2nccc(N3CCC(NC(=O)Nc4cccc(C(C)=O)c4)C3)n2)cc(OC)c1OC (stereo not drawn) [GSK1379753] ?
Reply text: 0%

Inquiry: Next entry: COc1cccc(C(=O)Nc2cccc(Oc3ccc4nc(NC(=O)C5CC5)cn4n3)c2)c1
Reply text: 4%

Inquiry: Queued: CN(C)Cc1ccc(-c2ccc3c(Nc4ccc(Oc5ccccn5)cc4)ccnc3c2)o1 [GW567148]
Reply text: 0%

Inquiry: Follow-up entry: COc1cccc(-c2ccc3c(NC(=O)C4CC4)n[nH]c3n2)c1 [SB-710903]
Reply text: 0%

Inquiry: For Cc1cccc(Nc2nc(N[C@H]3CCNC3)ncc2C(N)=O)c1.Cl [GSK2197149] then?
Reply text: 1%

====

In this section we review reported %Inh values for a set of molecules.
Tested on: PCTK1
Construct: gene CDK16
Details: concentration: 1 μM, replicates: in singlicate; n = 1
Give just the numeric value; % need not be written.

Some molecules with recorded %Inh:
| smilesRepr | %Inh, % |
| --- | --- |
| CCn1c(-c2nonc2N)nc2c(C#CC(C)(C)O)nc(OC[C@H](N)c3ccccc3)cc21 | 0 |
| CCCCc1nn2ncccc2c1-c1ccnc(Nc2ccc(N3CCN(C)CC3)cc2)n1 | 26 |
| c1ccc(-c2n[nH]cc2Nc2ccnc3ccccc23)nc1 | 4 |

Inquiry: Which %Inh value is on record for Cc1ccc(F)c(C(=O)Nc2cccc(-c3nn4ccccc4c3-c3ccnc(Nc4cccc(F)c4)n3)c2)c1F ?
Reply text: 0

====

System: EGFR
Settings: concentration: 1 μM, replicates: in singlicate; n = 1
just bin them by %Inh: b0: < 20%; b1: ≥ 20% and < 40%; b2: ≥ 40%

Before answering, review these 5 worked examples.
| compound | categoryLabel |
| --- | --- |
| Nc1n[nH]c2cnc(-c3ccccc3)cc12 | b1 |
| COCCOCCOc1cc2ncc3c4ccc(C#N)cc4[nH]c3c2cc1OC | b0 |
| CN(c1ccc(NC(=O)Nc2cc(C(F)(F)F)ccc2F)cc1)c1ccnc(Nc2ccc(S(N)(=O)=O)cc2)n1 | b0 |
| O=C(Nc1cccc(Oc2ccc3nc(NC(=O)C4CC4)cn3n2)c1)c1ccccc1C(F)(F)F | b2 |
| CSc1cccc2c(-c3ccncn3)c(-c3ccc(F)cc3)nn12 | b2 |

Inquiry: Band for the recorded %Inh of COc1cc(Nc2nccc(N3CCC(NC(=O)Nc4cccc(C(C)=O)c4)C3)n2)cc(OC)c1OC (stereo not shown) ?
Reply text: b1

Inquiry: Now the compound COc1ccc(-c2coc3ccc(-c4nnc(SCc5ccc(OC)c(C(F)(F)F)c5)o4)cc23)cc1
Reply text: b0

Inquiry: Another: COC(=O)Nc1nc2ccc(Oc3ccc(NC(=O)Nc4cc(C(F)(F)F)ccc4F)cc3)cc2n1C.Cl
Reply text: b0

Inquiry: Now consider Fc1ccc(-c2ncn(C3CCNCC3)c2-c2ccnc(Oc3ccc(-c4ccccc4)cc3)n2)cc1 and answer again.
Reply text: b0
